Tested on: T1, human GREM1 (hGREM1-His; SEQ ID NO: 595) (human, UniProt O60565 25-184)
T1 construct: also called biotin-hGREM1-His; recombinant human GREM1 protein
T1 sequence: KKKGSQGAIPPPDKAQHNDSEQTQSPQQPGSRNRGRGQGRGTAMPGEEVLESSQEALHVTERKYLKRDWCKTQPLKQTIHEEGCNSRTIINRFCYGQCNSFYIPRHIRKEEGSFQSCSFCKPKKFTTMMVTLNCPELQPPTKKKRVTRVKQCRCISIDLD
Procedure text: competition ELISA, biotin-hGREM1-His (100 pM) binding to coated hBMP4
Observed property: pIC50
Note: pIC50 values are expressed as the negative base-10 logarithm of concentration in M.

Examples with answers:
H4H2892N (antibody, human IgG4, V domains shown, H4H prefix = human IgG4 Fc) VH: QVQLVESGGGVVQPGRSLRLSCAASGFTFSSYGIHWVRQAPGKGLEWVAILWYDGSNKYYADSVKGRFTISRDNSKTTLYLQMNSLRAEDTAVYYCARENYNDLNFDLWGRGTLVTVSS VL: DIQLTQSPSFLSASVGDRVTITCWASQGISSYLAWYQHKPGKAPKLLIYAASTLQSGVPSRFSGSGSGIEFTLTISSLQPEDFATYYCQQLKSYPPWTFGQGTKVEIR : 9.77
H4H6252P (antibody, human IgG4, V domains shown, H4H prefix = human IgG4 Fc; also called H4H6252S) VH: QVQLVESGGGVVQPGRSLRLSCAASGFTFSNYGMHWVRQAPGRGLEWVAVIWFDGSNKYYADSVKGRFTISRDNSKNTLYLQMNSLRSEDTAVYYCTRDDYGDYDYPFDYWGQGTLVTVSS VL: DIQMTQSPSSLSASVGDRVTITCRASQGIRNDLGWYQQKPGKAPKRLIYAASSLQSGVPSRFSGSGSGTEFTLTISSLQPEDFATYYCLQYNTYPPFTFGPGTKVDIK : 9.72
H4H6246P (antibody, human IgG4, V domains shown, H4H prefix = human IgG4 Fc) VH: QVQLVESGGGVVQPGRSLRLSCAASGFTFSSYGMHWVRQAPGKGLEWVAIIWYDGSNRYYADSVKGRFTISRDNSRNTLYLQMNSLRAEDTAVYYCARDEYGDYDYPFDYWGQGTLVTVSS VL: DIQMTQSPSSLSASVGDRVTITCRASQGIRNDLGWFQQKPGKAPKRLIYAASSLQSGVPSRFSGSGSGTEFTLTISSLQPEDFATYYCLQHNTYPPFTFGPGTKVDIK : 8.82
H4H6248P (antibody, human IgG4, V domains shown, H4H prefix = human IgG4 Fc) VH: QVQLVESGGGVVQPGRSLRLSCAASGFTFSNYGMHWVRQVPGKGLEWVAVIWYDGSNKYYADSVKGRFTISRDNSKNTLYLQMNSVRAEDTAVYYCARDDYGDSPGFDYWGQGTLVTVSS VL: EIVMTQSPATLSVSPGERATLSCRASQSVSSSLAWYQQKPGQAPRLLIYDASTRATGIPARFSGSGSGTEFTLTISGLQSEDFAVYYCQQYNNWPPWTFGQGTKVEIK : 9.68
H4H2780N (antibody, human IgG4, V domains shown, H4H prefix = human IgG4 Fc) VH: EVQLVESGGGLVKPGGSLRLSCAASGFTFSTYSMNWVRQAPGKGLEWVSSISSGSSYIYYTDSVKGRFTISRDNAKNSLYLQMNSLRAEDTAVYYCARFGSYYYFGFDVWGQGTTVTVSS VL: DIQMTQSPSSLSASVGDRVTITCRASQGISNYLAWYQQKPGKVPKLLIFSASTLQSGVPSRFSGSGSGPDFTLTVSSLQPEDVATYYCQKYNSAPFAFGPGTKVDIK : 10.00

input: # query: pIC50 of entry H4H6256P (antibody, human IgG4, V domains shown, H4H prefix = human IgG4 Fc) VH: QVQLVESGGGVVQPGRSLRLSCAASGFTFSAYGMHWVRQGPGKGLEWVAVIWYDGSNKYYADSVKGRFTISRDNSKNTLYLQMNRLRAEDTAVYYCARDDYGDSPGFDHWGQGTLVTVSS VL: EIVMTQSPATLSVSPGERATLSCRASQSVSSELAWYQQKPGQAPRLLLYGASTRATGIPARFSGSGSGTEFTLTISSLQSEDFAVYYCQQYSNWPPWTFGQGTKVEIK
output: 10.06

input: Consider the binder H4H6250P (antibody, human IgG4, V domains shown, H4H prefix = human IgG4 Fc) VH: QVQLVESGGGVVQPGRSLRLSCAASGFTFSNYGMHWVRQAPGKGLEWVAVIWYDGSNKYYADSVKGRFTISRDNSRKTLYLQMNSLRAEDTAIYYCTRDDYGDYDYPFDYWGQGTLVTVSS VL: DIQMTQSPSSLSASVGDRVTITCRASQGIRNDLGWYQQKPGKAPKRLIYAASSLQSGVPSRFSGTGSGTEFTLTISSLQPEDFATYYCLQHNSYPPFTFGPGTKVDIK and give its measured pIC50.
output: 9.96
